assay: Toxicity in Sprague-Dawley rat assessed as mortality administered as po single dose measured up to 1 month post dose; format: organism-based; conditions: in vivo
measure name: LD50 at 1 month (mg/kg)
Give bare numbers, in mg/kg.

Field request: LD50 at 1 month | item: "Cc1nn(-c2ccccc2)c(Oc2ccc(-c3nc4cc([N+](=O)[O-])ccc4[nH]3)cc2)c1/C=N/NC(N)=O"
500
